These data points were gathered from paper PMC10135569.

System: hiPSC-CMs (iCell2 Cardiomyocytes) 2D monolayers
RUN_DESCRIPTION: Membrane potential (action potential) recordings with FluoVolt voltage-sensitive dye on the CellOPTIQ platform
Format: cell-based, human
PARTICULARS: Homo sapiens, Cardiomyocyte, 0.5 h, FM monolayer; 1 µM; 30 min; delta over DMSO 0.1%; read-out: APD30 (%DD)
MEASUREMENT_LABEL: activity at 1 µM (%)
Report only the number, with the unit % understood.

Observe how each entry below is paired with its result.
{"COMPOUND": "Cc1[nH]c(=O)c(C#N)cc1-c1ccncc1", "UNIT_SPEC": "%", "activity at 1 µM": 100}
{"COMPOUND": "C[C@@H]1CC(=O)NN=C1c1ccc(NN=C(C#N)C#N)cc1", "UNIT_SPEC": "%", "activity at 1 µM": 94}
{"COMPOUND": "CC(CCc1ccc(O)cc1)NCCc1ccc(O)c(O)c1 (centres unmarked)", "UNIT_SPEC": "%", "activity at 1 µM": 84}
{"COMPOUND": "C[N+](C)(C)CCOC(N)=O", "UNIT_SPEC": "%", "activity at 1 µM": 103}

Next:
activity at 1 µM for C=C[C@H]1C[N@@]2CC[C@H]1C[C@@H]2[C@@H](O)c1ccnc2ccc(OC)cc12 is 104
